- method.description: Cytotoxicity against human MT4 cells after 5 days by MTT assay
- Assay type: cell-based
Readings of CC50 at 120 h for the listed compounds

# smiles.notation, result.unit, comparative.sign, CC50 at 120 h
rows = [
    ("CNc1nc(Nc2c(C)cc(C)cc2C)nc(NC2CCN(C(=O)c3ccc(O)cc3)CC2)n1", "µM", "=", 55.4),
    ("COc1nc(Nc2c(C)cc(C)cc2C)nc(NC2CCN(Cc3cccc(C#N)c3)CC2)n1", "µM", "=", 23.5),
    ("CNc1nc(Nc2c(C)cc(C)cc2C)nc(NC2CCN(Cc3ccc(F)cc3)CC2)n1", "µM", "=", 25.6),
    ("Cc1ccnc2c1NC(=O)c1cccnc1N2C1CC1", "µM", ">", 15),
    ("CNc1nc(Nc2c(C)cc(C)cc2C)nc(NC2CCN(Cc3cccc(C#N)c3)CC2)n1", "µM", "=", 23),
    ("CNc1nc(Nc2c(C)cc(C)cc2C)nc(NC2CCN(C(=O)c3ccc(C(=O)O)cc3)CC2)n1", "µM", "≥", 255),
    ("COc1nc(Nc2c(C)cc(C)cc2C)nc(NC2CCN(C(=O)c3ccc(C(=O)O)cc3)CC2)n1", "µM", "≥", 149),
    ("CNc1nc(Nc2c(C)cc(C)cc2C)nc(NC2CCN(Cc3ccc(C#N)cc3)CC2)n1", "µM", "=", 10),
    ("CNc1nc(Nc2c(C)cc(C)cc2C)nc(NC2CCN(C(=O)c3ccccc3)CC2)n1", "µM", "=", 30.9),
]

###

- Tested on: Human immunodeficiency virus 1
- method.description: Antiviral activity against HIV1 expressing reverse transcriptase K103N/Y181C mutant infected in human MT4 cells assessed as protection against virus-induced cytotoxicity after 5 days by MTT assay
- Format: functional, organism-based
- measurement.context: Human immunodeficiency virus 1, MT4, 120 h
parameter: log10 EC50 (log10 of the value in µM)

# compound, log10 EC50
records = [
    ("CNc1nc(Nc2c(C)cc(C)cc2C)nc(NC2CCN(Cc3ccccc3)CC2)n1", 0.70),
    ("COc1ccc(CN2CCC(Nc3nc(Nc4c(C)cc(C)cc4C)nc(OC)n3)CC2)cc1", 0.87),
    ("CNc1nc(Nc2c(C)cc(C)cc2C)nc(NC2CCN(Cc3cccc(C#N)c3)CC2)n1", 0.66),
    ("COc1nc(Nc2c(C)cc(C)cc2C)nc(NC2CCN(Cc3ccccc3)CC2)n1", 0.68),
    ("COc1nc(Nc2c(C)cc(C)cc2C)nc(NC2CCN(Cc3ccc(C#N)cc3)CC2)n1", 0.20),
    ("COc1nc(Nc2c(C)cc(C)cc2C)nc(NC2CCN(Cc3ccc(F)cc3)CC2)n1", 0.81),
    ("CNc1nc(Nc2c(C)cc(C)cc2C)nc(NC2CCN(Cc3ccc(F)cc3)CC2)n1", 0.69),
    ("Cc1cc(C#N)cc(C)c1Oc1nc(Nc2ccc(C#N)cc2)nc(N)c1Br [ETRAVIRINE]", -1.59),
    ("CNc1nc(Nc2c(C)cc(C)cc2C)nc(NC2CCN(Cc3ccccc3C#N)CC2)n1", 0.66),
    ("CNc1nc(Nc2c(C)cc(C)cc2C)nc(NC2CCN(Cc3ccc(OC)cc3)CC2)n1", 0.76),
    ("Cc1ccnc2c1NC(=O)c1cccnc1N2C1CC1 [NEVIRAPINE]", 1.05),
    ("CNc1nc(Nc2c(C)cc(C)cc2C)nc(NC2CCN(Cc3ccc(C#N)cc3)CC2)n1", 0.11),
    ("COc1nc(Nc2c(C)cc(C)cc2C)nc(NC2CCN(Cc3cccc(C#N)c3)CC2)n1", 0.66),
    ("COc1nc(Nc2c(C)cc(C)cc2C)nc(NC2CCN(Cc3ccccc3C#N)CC2)n1", 0.83),
]

###

- Test system: Human immunodeficiency virus 1
- method.description: Antiviral activity against HIV1 3B infected in human MT4 cells assessed as protection against virus-induced cytotoxicity after 5 days by MTT assay
- Type: functional, organism-based
- measurement.context: Human immunodeficiency virus 1, 3B, MT4, 120 h
Where a name gives a salt, the structure may show the parent alone.
# TRUE = EC50 below 10 nM (exclusive); FALSE = EC50 at/above 10 nM

# compound, category.label
rows = [
    ("CC(C)Nc1cccnc1N1CCN(C(=O)c2cc3cc(NS(C)(=O)=O)ccc3[nH]2)CC1 [DELAVIRDINE MESYLATE]", "FALSE"),
    ("CNc1nc(Nc2c(C)cc(C)cc2C)nc(NC2CCN(Cc3ccc([N+](=O)[O-])cc3)CC2)n1", "TRUE"),
    ("COc1nc(Nc2c(C)cc(C)cc2C)nc(NC2CCN(C(=O)c3ccc(O)cc3)CC2)n1", "FALSE"),
    ("Cc1cn([C@H]2C[C@H](N=[N+]=[N-])[C@@H](CO)O2)c(=O)[nH]c1=O", "FALSE"),
    ("COc1nc(Nc2c(C)cc(C)cc2C)nc(NC2CCN(C(=O)c3ccc(C(=O)O)cc3)CC2)n1", "FALSE"),
    ("COc1nc(Nc2c(C)cc(C)cc2C)nc(NC2CCN(Cc3ccc([N+](=O)[O-])cc3)CC2)n1", "TRUE"),
    ("CNc1nc(Nc2c(C)cc(C)cc2C)nc(NC2CCN(Cc3ccc(C#N)cc3)CC2)n1", "TRUE"),
    ("CNc1nc(Nc2c(C)cc(C)cc2C)nc(NC2CCN(C(=O)c3ccccc3)CC2)n1", "FALSE"),
    ("CNc1nc(Nc2c(C)cc(C)cc2C)nc(NC2CCN(C(=O)c3ccc(C(=O)O)cc3)CC2)n1", "FALSE"),
    ("Nc1ccn([C@H]2CC[C@@H](CO)O2)c(=O)n1", "FALSE"),
    ("CNc1nc(Nc2c(C)cc(C)cc2C)nc(NC2CCN(Cc3ccc(OC)cc3)CC2)n1", "TRUE"),
    ("COc1nc(Nc2c(C)cc(C)cc2C)nc(NC2CCN(Cc3ccc(C#N)cc3)CC2)n1", "TRUE"),
    ("CNc1nc(Nc2c(C)cc(C)cc2C)nc(NC2CCN(Cc3ccccc3)CC2)n1", "TRUE"),
    ("COc1nc(Nc2c(C)cc(C)cc2C)nc(NC2CCN(Cc3ccccc3C#N)CC2)n1", "FALSE"),
    ("CNc1nc(Nc2c(C)cc(C)cc2C)nc(NC2CCN(C(=O)c3ccc([N+](=O)[O-])cc3)CC2)n1", "FALSE"),
    ("CNc1nc(Nc2c(C)cc(C)cc2C)nc(NC2CCN(C(=O)c3ccc(O)cc3)CC2)n1", "FALSE"),
]

###

Consider the following compounds and their measured pEC50 readings.
- System: Human immunodeficiency virus 1
- method.description: Antiviral activity against HIV1 3B infected in human MT4 cells assessed as protection against virus-induced cytotoxicity after 5 days by MTT assay
- Assay type: functional, organism-based
- measurement.context: Human immunodeficiency virus 1, 3B, MT4, 120 h
pEC50: −log10 of the molar value.
parameter: pEC50

# smiles.notation, parameter, obs.value
measured = [
    ("COc1nc(Nc2c(C)cc(C)cc2C)nc(NC2CCN(C(=O)c3ccccc3)CC2)n1", "pEC50", 5.75),
    ("CNc1nc(Nc2c(C)cc(C)cc2C)nc(NC2CCN(Cc3cccc(C#N)c3)CC2)n1", "pEC50", 8.15),
    ("COc1nc(Nc2c(C)cc(C)cc2C)nc(NC2CCN(Cc3ccc(F)cc3)CC2)n1", "pEC50", 7.94),
    ("COc1nc(Nc2c(C)cc(C)cc2C)nc(NC2CCN(Cc3ccccc3)CC2)n1", "pEC50", 7.95),
    ("CNc1nc(Nc2c(C)cc(C)cc2C)nc(NC2CCN(Cc3ccc(F)cc3)CC2)n1", "pEC50", 7.99),
    ("COc1nc(Nc2c(C)cc(C)cc2C)nc(NC2CCN(C(=O)c3ccc([N+](=O)[O-])cc3)CC2)n1", "pEC50", 5.36),
    ("Cc1ccnc2c1NC(=O)c1cccnc1N2C1CC1", "pEC50", 7.05),
    ("COc1ccc(CN2CCC(Nc3nc(Nc4c(C)cc(C)cc4C)nc(OC)n3)CC2)cc1", "pEC50", 8.01),
]

###

- method.description: Selectivity index, ratio of CC50 for human MT4 cells to EC50 for HIV1 3B
- Format: toxicity, cell-based
- measurement.context: read-out: Ratio CC50/EC50
Threshold 2000: selectivity ratio strictly smaller gives Met, otherwise Not met.

# smiles.notation, category.label
measured = [
    ("Cc1cn([C@H]2C[C@H](N=[N+]=[N-])[C@@H](CO)O2)c(=O)[nH]c1=O", "Not met"),
    ("COc1nc(Nc2c(C)cc(C)cc2C)nc(NC2CCN(Cc3ccccc3C#N)CC2)n1", "Met"),
    ("COc1nc(Nc2c(C)cc(C)cc2C)nc(NC2CCN(Cc3ccc(F)cc3)CC2)n1", "Not met"),
    ("CNc1nc(Nc2c(C)cc(C)cc2C)nc(NC2CCN(Cc3ccc(OC)cc3)CC2)n1", "Not met"),
    ("COc1nc(Nc2c(C)cc(C)cc2C)nc(NC2CCN(C(=O)c3ccccc3)CC2)n1", "Met"),
]
